test system: SK-MES-1; assay: relative viability (nuclei count vs DMSO), 5 days (fraction); higher = more cells survive; details: first compound 2.53 µM

COMPOUND: Cc1cnc(-c2cnc(NCCNc3ccc(C#N)cn3)nc2-c2ccc(Cl)cc2Cl)[nH]1 + C[C@@H](Oc1cc(-c2cnn(C3CCNCC3)c2)cnc1N)c1c(Cl)ccc(F)c1Cl [Crizotinib] (partner 1 µM)
relative viability: 0.941
--
COMPOUND: O=c1[nH]c2ccccc2n1C1CCN(CCCC(c2ccc(F)cc2)c2ccc(F)cc2)CC1 [Pimozide] + COc1cc2c(Oc3ccc(NC(=O)C4(C(=O)Nc5ccc(F)cc5)CC4)cc3F)ccnc2cc1OCCCN1CCOCC1 [Foretinib] (partner 0.25 µM)
relative viability: 1.06

----------
tested on: NCI-H1993; experiment: relative viability (nuclei count vs DMSO), 5 days (fraction); higher = more cells survive; details: first compound 4 µM
Overview of recorded relative viability for various molecules
QUANTITY_NAME: relative viability

MOLECULE: Cc1sc2c(c1C)C(c1ccc(Cl)cc1)=N[C@@H](CC(=O)OC(C)(C)C)c1nnc(C)n1-2 [JQ1] + C[C@]1(O)C[C@@H](c2nc(-c3ccc4ccc(-c5ccccc5)nc4c3)c3c(N)nccn32)C1 [Linsitinib] (partner 1 µM)
MEASURED: 0.736
//
MOLECULE: Cc1sc2c(c1C)C(c1ccc(Cl)cc1)=N[C@@H](CC(=O)OC(C)(C)C)c1nnc(C)n1-2 [JQ1] + CC(=O)Nc1cccc(-n2c(=O)n(C3CC3)c(=O)c3c(Nc4ccc(I)cc4F)n(C)c(=O)c(C)c32)c1 [Trametinib] (partner 0.02 µM)
MEASURED: 0.57
//
MOLECULE: Cc1sc2c(c1C)C(c1ccc(Cl)cc1)=N[C@@H](CC(=O)OC(C)(C)C)c1nnc(C)n1-2 [JQ1] + Cc1nc(NC(=O)N2CCC[C@H]2C(N)=O)sc1-c1ccnc(C(C)(C)C(F)(F)F)c1 [Alpelisib] (partner 2 µM)
MEASURED: 0.665

----------
Overview of recorded relative viability for various molecules
test system: NCI-H1651; test: relative viability (nuclei count vs DMSO), 5 days (fraction); higher = more cells survive; details: first compound 0.005 µM

MOLECULE: Nc1ccn([C@@H]2O[C@H](CO)[C@@H](O)[C@@H]2O)c(=O)n1 [Cytarabine] + C[C@@H](Oc1cc(-c2cnn(C3CCNCC3)c2)cnc1N)c1c(Cl)ccc(F)c1Cl [Crizotinib] (partner 1 µM)
SYSTEM_NAME: NCI-H1651
relative viability: 0.869
--
MOLECULE: COc1cc2nccc(Oc3ccc(NC(=O)Nc4cc(C)on4)c(Cl)c3)c2cc1OC [Tivozanib] + NC(=O)Nc1cc(-c2cccc(F)c2)sc1C(=O)N[C@H]1CCCNC1 [AZD7762] (partner 0.2 µM)
SYSTEM_NAME: NCI-H1651
relative viability: 0.381
--
MOLECULE: Nc1ccn([C@@H]2O[C@H](CO)[C@@H](O)[C@@H]2O)c(=O)n1 [Cytarabine] + C[C@]1(O)C[C@@H](c2nc(-c3ccc4ccc(-c5ccccc5)nc4c3)c3c(N)nccn32)C1 [Linsitinib] (partner 1 µM)
SYSTEM_NAME: NCI-H1651
relative viability: 0.916
--
MOLECULE: Nc1ccn([C@@H]2O[C@H](CO)[C@@H](O)[C@@H]2O)c(=O)n1 [Cytarabine] + O=C(c1cc(Cc2n[nH]c(=O)c3ccccc23)ccc1F)N1CCN(C(=O)C2CC2)CC1 [Olaparib] (partner 8 µM)
SYSTEM_NAME: NCI-H1651
relative viability: 0.187
--
MOLECULE: Nc1ccn([C@@H]2O[C@H](CO)[C@@H](O)[C@@H]2O)c(=O)n1 [Cytarabine] + COc1cccc2cc(-c3nc([C@H]4CC[C@H](C(=O)O)CC4)n4ncnc(N)c34)[nH]c12 [OSI-027] (partner 0.5 µM)
SYSTEM_NAME: NCI-H1651
relative viability: 0.792
--
MOLECULE: COc1cc2nccc(Oc3ccc(NC(=O)Nc4cc(C)on4)c(Cl)c3)c2cc1OC [Tivozanib] + CC1(C)CCC(c2ccc(Cl)cc2)=C(CN2CCN(c3ccc(C(=O)NS(=O)(=O)c4ccc(N[C@H](CCN5CCOCC5)CSc5ccccc5)c(S(=O)(=O)C(F)(F)F)c4)cc3)CC2)C1 [Navitoclax] (partner 0.5 µM)
SYSTEM_NAME: NCI-H1651
relative viability: 0.979
--
MOLECULE: COc1cc2nccc(Oc3ccc(NC(=O)Nc4cc(C)on4)c(Cl)c3)c2cc1OC [Tivozanib] + Cc1nc(NC(=O)N2CCC[C@H]2C(N)=O)sc1-c1ccnc(C(C)(C)C(F)(F)F)c1 [Alpelisib] (partner 2 µM)
SYSTEM_NAME: NCI-H1651
relative viability: 0.985
--
MOLECULE: Nc1ccn([C@@H]2O[C@H](CO)[C@@H](O)[C@@H]2O)c(=O)n1 [Cytarabine] + Nc1ncn([C@H]2C[C@H](O)[C@@H](CO)O2)c(=O)n1 [Decitabine] (partner 2 µM)
SYSTEM_NAME: NCI-H1651
relative viability: 0.646
--
MOLECULE: COc1cc2nccc(Oc3ccc(NC(=O)Nc4cc(C)on4)c(Cl)c3)c2cc1OC [Tivozanib] + COc1cc2c(Oc3ccc(NC(=O)C4(C(=O)Nc5ccc(F)cc5)CC4)cc3F)ccnc2cc1OCCCN1CCOCC1 [Foretinib] (partner 0.25 µM)
SYSTEM_NAME: NCI-H1651
relative viability: 0.784

Source of measurements: the supplement of paper PMC10307832
